- Tested on: Rat1
- ASSAY_PROTOCOL: Inhibition of anchorage independent growth of H-ras-transformed RAT1 cells on poly(HEMA) coated microtiter plate
- Format: functional, cell-based
- STUDY_CONDITIONS: Rattus norvegicus
Below is a list of entries, each paired with its recorded pIC50 value.
Kindly note that pIC50 refers to -log10 of the concentration in mol/L and answer with the value alone.

[
  {
    "STRUCTURE_SMILES_STRING": "CCS(=O)(=O)C[C@@H]1CN(c2cccc(Cl)c2)C(=O)CN1Cc1cncn1Cc1ccc(C#N)cc1",
    "pIC50": 8.10
  }
]

Now let's try a different one.
May I ask what pIC50 has been recorded for `CCCC[C@H]1CN(c2cccc(C)c2C)C(=O)CN1Cc1cncn1Cc1ccc(C#N)cc1` ? 7.55

====

- ASSAYED_SYSTEM: Geranylgeranyl transferase type I (Homo sapiens, UniProt P49354+P53609)
- ASSAY_PROTOCOL: Inhibition of [3H]GGPP incorporation into recombinant human RhoA by Geranylgeranyl transferase type I
PROPERTY: IC50 (µM)
Response body: numeric value in µM, unit text excluded.

May I ask what IC50 has been recorded for `CCCC[C@H]1CN(c2cccc(C)c2C)C(=O)CN1Cc1cncn1Cc1ccc(C#N)cc1` ? 10
